Hey, just so you know, these numbers are from PubChem BioAssay (NCI).

Test system: RPMI-8226 leukemia
assay_overview: NCI tumour cell line growth inhibition, 48 h
Would you mind telling me the reported TGI of each entry?

Some entries whose results are on file:
compound	TGI
Brc1ccc2[nH]cc(-c3csc(-c4c[nH]c5ccccc45)n3)c2c1	12.1 µM
CN(C)c1ccc(/C=c2/c3ccccc3n3c2c2c([n+]3C)CCCC2)cc1	0.656 µM
N#CN/C(N)=N/CO	> 76.2 µM
CC(C)C(CCl)NC(=O)c1cccc(C(=O)N[C@H](CCl)C(C)C)n1 (stereo in doubt)	> 100 µM
NS(=O)(=O)c1ccc(/C=C/c2ccc(O)c(O)c2)cc1	73.3 µM
COc1cccc(C2CC(C)(O)Oc3cc4c(cc32)OCO4)c1O (stereo not given)	> 78.2 µM
O=C1C2SC34c5c2c2ccccc2n5CCC3CCCN14 (stereo not given)	> 100 µM
Cn1c(=O)c2c(ncn2CCNC(CO)C(O)c2ccc([N+](=O)[O-])cc2)n(C)c1=O (stereo not given)	> 100 µM

// for each compound in input: emit TGI
1. CN1CCN(C2CCN(C(=O)Nc3cc(Oc4ccc(NC(=O)C5(C(=O)Nc6ccc(F)cc6)CC5)c(F)c4)ccn3)CC2)CC1
2. CCOc1ncn(-c2ccc(NC(=S)Nc3ncccn3)cc2)n1

Response given:
["> 2.63 µM", "> 100 µM"]

----------
What TGI was measured for each of the following?
Test system: SN12C renal
assay_overview: NCI tumour cell line growth inhibition, 48 h

See these solved cases before continuing.
compound	TGI
COc1ccc(OC)c2c1[nH]c(=O)c1c3ccccc3cn21	2.58 µM
CC1(C)COC(C2(C)C(=O)C=C(c3ccccc3)c3ccccc32)=N1 (configuration not stated)	> 100 µM
Cn1cc(C2=C(c3ccc(N)cc3)C(=O)NC2=O)c2ccccc21	> 25 µM
Cc1ccc(C2SCC(=O)N2c2ccc(-n3c(-c4ccccc4)nc4ccccc4c3=O)cc2)cc1 (configuration not stated)	> 100 µM

Answer for every listed entry: what is its TGI? The entries follow.
1. N#C[C@H](c1ccccn1)c1nc2ccccc2nc1Cl
2. CC(=O)c1ccccc1NP(=O)(c1ccccc1)c1ccccc1
3. O=C1Sc2cc3ccccc3cc2C(=O)Sc2ccc(Br)cc21
4. O=C(O)c1nnsc1-c1ccc(-c2snnc2C(=O)O)cc1

Response given:
1: > 100 µM; 2: > 100 µM; 3: 16.8 µM; 4: > 100 µM

// each listed compound needs a value for TGI
1. C(=NCCN1CCOCC1)=NC1CCCCC1
2. O=c1sc2ccccc2n1CC1CS1 (configuration not stated)
3. NC(N)=NCCN1CC2CCC(CC2)C1
4. CC(=O)CCn1ncc(Cl)c(Cl)c1=O

Response given:
["> 100 µM", "> 100 µM", "> 100 µM", "27.9 µM"]

----------
System: UACC-62 melanoma
assay_overview: NCI tumour cell line growth inhibition, 48 h
observable: TGI

compound	result_value
CCN1CCN(C(=O)[C@@]2(C)CC[C@]3(C)CC[C@]4(C)C(=CC(=O)[C@@H]5[C@@]6(C)CC[C@H](OC7C[C@@H](O)[C@@H](O)C(C)O7)C(C)(C)[C@@H]6CC[C@]54C)[C@@H]3C2)CC1 (stereo not given in full)	1750 nM
CC[As](CC)SC[C@H](C)C(=O)N1CCC[C@H]1C(=O)O	538 nM
O=c1[nH]cnc2c1cnn2Cc1cn(CCCCO)nn1	> 100000 nM

Record TGI for all entries; do not skip any.
1. O=[N+]([O-])c1ccc(CN(CCCl)OCCCl)cc1
2. CCCCOC(=O)CNC(=O)OC/C=C/C#CC#C/C=C/COC(=O)NCC(=O)OCCCC

Response given:
> 100000 nM
> 100000 nM
